# Fold Selective values compiled below
- Subject Of Test: human orexin-2 receptor (Homo sapiens)
- Construct: expressed in transfected cells; host or cells: CHO cells (grown under G418 selection)
- Sequence (O43614 1-444): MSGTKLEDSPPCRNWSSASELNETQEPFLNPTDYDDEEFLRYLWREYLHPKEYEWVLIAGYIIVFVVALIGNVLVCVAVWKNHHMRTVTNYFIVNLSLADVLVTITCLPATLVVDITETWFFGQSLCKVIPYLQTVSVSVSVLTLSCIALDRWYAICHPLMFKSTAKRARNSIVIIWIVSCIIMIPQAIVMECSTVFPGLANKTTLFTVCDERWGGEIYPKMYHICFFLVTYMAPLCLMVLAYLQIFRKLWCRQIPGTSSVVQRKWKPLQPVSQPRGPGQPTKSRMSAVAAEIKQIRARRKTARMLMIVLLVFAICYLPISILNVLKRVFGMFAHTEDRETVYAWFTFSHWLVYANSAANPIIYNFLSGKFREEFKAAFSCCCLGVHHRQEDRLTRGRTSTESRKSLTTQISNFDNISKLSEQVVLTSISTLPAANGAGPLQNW
- Assay Comment: FLIPR Ca2+ flux assay, OX2R
- Format: cell-based
- Measurement Conditions: OX1R FLIPR / OX2R FLIPR

Example cases with answers are listed next.
Cc1cc(C)nc(N2CC3CC2CN(C(=O)c2cccnc2OCC(C)O)C3)n1 (stereo not drawn) : >111
Cc1cc(C#N)nc(N2CC3CC2CN(C(=O)c2ccccc2CS(C)(=O)=O)C3)n1 (stereo not drawn) : >164

// recorded Fold Selective for Cc1cc(C)nc(N2CC3CC2CN(C(=O)c2nccnc2OC(C)C)C3)n1 (stereo not drawn) : >167

* * *

- Subject Of Test: rat orexin-1 receptor (Rattus norvegicus)
- Sequence (P56718 whole entry): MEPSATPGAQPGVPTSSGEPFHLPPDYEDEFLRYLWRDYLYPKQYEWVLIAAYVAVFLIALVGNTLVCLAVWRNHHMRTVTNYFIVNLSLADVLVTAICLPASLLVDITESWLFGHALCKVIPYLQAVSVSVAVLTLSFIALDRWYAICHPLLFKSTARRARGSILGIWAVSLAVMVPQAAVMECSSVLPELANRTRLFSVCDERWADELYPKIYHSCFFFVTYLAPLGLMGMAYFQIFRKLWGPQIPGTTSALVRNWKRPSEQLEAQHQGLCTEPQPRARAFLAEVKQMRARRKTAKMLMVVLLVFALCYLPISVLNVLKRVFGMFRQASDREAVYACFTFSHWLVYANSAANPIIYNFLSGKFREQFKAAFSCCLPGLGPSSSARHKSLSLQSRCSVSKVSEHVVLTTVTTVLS
- Assay Comment: FLIPR Ca2+ flux assay, OX1R
- Measurement Conditions: CHO cells expressing the rat orexin-1 receptor; agonist 70 pM Ala-6,12 orexin-A
Experimental Endpoint: IC50 (µM)
Express it in µM; write the number only.

Cc1cc(C)nc(N2CC3CC2CN(C(=O)c2ccccc2C2(C#N)CC2)C3)n1 (stereo not drawn) : 1.12
Cc1cc(C)nc(N2CC3CC2CN(C(=O)c2ccc(F)cc2C2CC2)C3)n1 (stereo not drawn) : 1.45
COCCc1ccccc1C(=O)N1CC2CC(C1)N(c1nc(C)cc(C)n1)C2 (stereo not drawn) : 3.99
Cc1cc(C)nc(N2CC3CC2CN(C(=O)c2nccnc2OCC(F)F)C3)n1 (stereo not drawn) : 3.86

// recorded IC50 for Cc1cc(C)nc(N2CC3CC2CN(C(=O)c2cccnc2OCC(F)(F)C(F)F)C3)n1 (stereo not drawn) : 0.206

// recorded IC50 for Cc1cc(C)nc(N2CC3CC2CN(C(=O)c2nccnc2OCC2CC2)C3)n1 (stereo not drawn) : 3.83

// recorded IC50 for Cc1cc(C)nc(N2CC3CC2CN(C(=O)c2cccnc2OCC2CC2(F)F)C3)n1 (stereo not drawn) : 0.584

// recorded IC50 for Cc1cc(C)nc(N2CC3CC2CN(C(=O)c2ccccc2C2(F)CC2)C3)n1 (stereo not drawn) : 0.872

// recorded IC50 for Cc1cc(C)nc(N2CC3CC2CN(C(=O)c2cccnc2OC2CCCC2)C3)n1 (stereo not drawn) : 1.08

// recorded IC50 for Cc1cc(C#N)nc(N2CC3CC2CN(C(=O)c2ccccc2OCC(F)(F)F)C3)n1 (stereo not drawn) : 3.21

// recorded IC50 for COc1ccc(C(=O)N2CC3CC(C2)N(c2nc(C)cc(C)n2)C3)c(C2CC2)n1 (stereo not drawn) : 3.55

// recorded IC50 for Cc1cc(C)nc(N2CC3CC2CN(C(=O)c2cccnc2OCC2CCC2)C3)n1 (stereo not drawn) : 0.628

// recorded IC50 for Cc1cc(C#N)nc(N2CC3CC2CN(C(=O)c2cccnc2OCC(F)F)C3)n1 (stereo not drawn) : 3.3
